molecular target: D(1A) dopamine receptor (Homo sapiens); assay: Antagonist of Human D 1 Dopamine Receptor: qHTS; settings: HEK293 TREx D1 cells, calcium flux, dopamine EC80; at 10 µM; note: % is set by controls: 0 for no effect and ±100 for the full control effect
Hit rate of the full screen: of about 360,000 compounds, about 11,000 (3.1%) were called active. Cut-off read from the data, not from the text of the source: active = activity change below about -30%; inactive = the rest. The sample holds actives, similar compounds and a random draw of the others, so the mix is not that of the screen.
Reply using exactly one outcome from active, inactive

INSERT INTO assay_data (compound, answer_label) VALUES
  ('CCOC(=O)c1cc(NC(=O)c2ccc(F)cc2)c(=O)n2c1oc1ccccc12', 'inactive'),
  ('O=C(CS(=O)(=O)c1cccc2nsnc12)N1CCN(c2cccc(Cl)c2)CC1', 'inactive'),
  ('COc1ccccc1CN1CCC(CNC(=O)c2cnn(-c3ccccc3Cl)c2C2CCN(C(=O)OC(C)(C)C)CC2)CC1', 'inactive'),
  ('O=C(CSc1ncn[nH]1)Nc1nc(-c2cccc([N+](=O)[O-])c2)cs1', 'inactive'),
  ('C/C(=N\NC(=O)C1(C)CC1(Br)Br)c1ccc(C)cc1C (stereo not given)', 'active');

[ask] Hi, sorry to bother you, what did the test record for CC1CCN(C(=O)Cn2c(=O)n(-c3ccc(Cl)cc3)c(=O)c3c4c(sc32)CCC4)CC1 ?
[reply] inactive

[ask] Assay result, entry CC(=O)c1cc(NC(=O)c2ccccc2)c(=O)oc1/C=C/N(C)C — outcome?
[reply] inactive

[ask] Which result was noted for this compound in the test: O=C(CCC(=O)N1CC2CCCN2c2ccccc21)NCc1ccccc1Cl (stereo not given)
[reply] inactive

[ask] Record lookup: outcome of this test for CC(C)Oc1ccc(CNC(=O)C2CCN(c3nc4ccccc4n(C)c3=O)CC2)cc1 ?
[reply] inactive

[ask] So what was the verdict on Cc1ccc(C(=O)NC2CC(C)(C)NC(C)(C)C2)c(C)c1 in this test?
[reply] inactive

###

Target: D(1A) dopamine receptor (Homo sapiens)
Test: Antagonist of Human D 1 Dopamine Receptor: qHTS; note: % is set by controls: 0 for no effect and ±100 for the full control effect
Conditions: HEK293 TREx D1 cells, calcium flux, dopamine EC80; at 10 µM; stronger effect = lower value
Protocol: Dopamine receptors (DARs) are involved in the etiology and/or therapy of a number of neuropsychiatric and endocrine disorders. […] Freshly passaged cells are plated in 1536 well black, clear bottom plates at a density of 4000 cells/well in 3 ul of complete media containing 1x tetracycline inducer. […] Agonist read: A 10 cycle (1 second/cycle) baseline measurement is taken and then the FDSS online 1536 pintool delivers 23 nl of compound library (as well as dopamine controls) to the plate. […]
About 11,000 (3.1%) of roughly 360,000 compounds were called active. The full list was thinned out, with actives kept by preference.
Below: a set of entries, each annotated with reported activity change, negative = inhibition.
The response must be a number in % with no trailing unit.

Worked cases, activity change, negative = inhibition given:
INSERT INTO assay_data (compound, measured_value) VALUES
  ('Cc1cccc(CC(=O)Nc2cccc(-c3cn4cccnc4n3)c2)c1', -7.29),
  ('Cn1cc(C(=O)c2ccc(Cl)cc2Cl)cc1C(=O)NN', -37.3),
  ('CCOC(=O)c1[nH]c2ccc(OC)cc2c1NC(=O)N1CCOCC1', -7.34),
  ('COC(=O)COc1cccc2c(=O)n(CC(=O)NCCc3ccc(OC)c(OC)c3)ccc12', 19.9),
  ('CCn1cc(CN2CCC(C(=O)Nc3cccc(-c4cccc(Cl)c4)c3)CC2)cn1', -38.6),
  ('CCCNC(=O)c1ccc(N2CCC3(CC2)CC(c2ccc(Cl)cc2)=NO3)c([N+](=O)[O-])c1', -31.3);

[ask] May I ask what activity change, negative = inhibition has been recorded for Cc1ccc(C(=O)NCCSc2c(C)[nH]c3ccccc23)cc1C ?
[reply] -23.5

[ask] Consider the compound Cc1ccc(NC(=O)Nc2ccc3oc(C)nc3c2)cc1 and give its measured activity change, negative = inhibition.
[reply] -1.61

[ask] Value lookup for activity change, negative = inhibition; key = O=C(CCS(=O)(=O)c1ccc2c(c1)NC(=O)CO2)Nc1cccc(C(F)(F)F)c1
[reply] 1.28

[ask] So what's the measured activity change, negative = inhibition for this one? O=C(CSc1cn(CC(=O)N2CCOCC2)c2ccccc12)Nc1ccccc1
[reply] 11.6

[ask] Any idea what its activity change, negative = inhibition is? The compound is O=C(CSCc1cnn(-c2ccccc2)c1-n1cccc1)NCc1ccccc1Br
[reply] 7.2

[ask] Request the reported activity change, negative = inhibition associated with COc1ccc(F)cc1S(=O)(=O)N1CCCCC1
[reply] 1.35

[ask] Bench note: what activity change, negative = inhibition did O=CN1CCN(C(=O)c2ccc(Br)o2)CC1 show?
[reply] -36.1

[ask] Reported activity change, negative = inhibition, compound CC(C)c1ccc(NC(=O)c2ccc(Cn3nc(N4CCN(c5ccccc5)CC4)ccc3=O)o2)cc1 : ____
[reply] -6.07

[ask] Give its activity change, negative = inhibition value. Item: CCCNC(=O)c1ccc(N2CCC3(CC2)CC(c2cccc(Br)c2)=NO3)c(NC(=O)c2ccco2)c1
[reply] -2.71

[ask] Which activity change, negative = inhibition value is on record for CCOC(=O)c1ccc(NC(=O)C2CC(=O)NC(=Nc3ccc(C)c(C)c3)S2)cc1 (stereo not drawn) ?
[reply] -1.43

[ask] Fill in: activity change, negative = inhibition of CCCCCn1c(=O)[nH]c2cc(C(=O)Nc3cc(C)cc(C)c3)ccc2c1=O is ___
[reply] -6.59

[ask] Which measured activity change, negative = inhibition value corresponds to COc1ccccc1CNC(=O)CCn1c(=O)c2ccccc2n(CC(=O)Nc2cccc(Cl)c2)c1=O ?
[reply] -3.25
